Provenance of the data: patent US20180280496A1

Biological target: A*11:01 (human), P04439
Conditions: modification not given
Property label: IC50 (nM)
// return numeric value only (unit: nM, not printed)

## Input # IC50 lookup, item ALTLHWFRK [SEQ ID NO: 311 serotype 4]
## Output 47
